The reported measurements were obtained from patent US4593090A.

system: Leukemia L1210; test: Activity against Leukemia L1210, intraperitoneal, increase in life span of mice; type: in vivo, female mice (BDF1 family); conditions: ip; O.D./ILS30
// Therapeutic ratio TR lookup, one value per entry
The response must contain the number and no unit.

Guide cases for Therapeutic ratio TR, answers given:
Req: Request the reported Therapeutic ratio TR associated with CC(C)CN(C(=O)N(CCCl)N=O)[C@@H]1[C@H](OC2CCCCC2)O[C@H](CO)[C@H]1O [Compound 162]
Resp: 28.4

Req: Entry under review: C=C(C)CO[C@H]1O[C@H](CN(C(=O)N(CCCl)N=O)C(C)(C)C)[C@@H](O)[C@H](O)[C@H]1O [Compound 177] . Reported Therapeutic ratio TR?
Resp: 65.4

Req: What does the record list as Therapeutic ratio TR for C=CCN(C[C@H]1O[C@H](OC2CCCCC2)[C@H](O)[C@@H](O)[C@@H]1O)C(=O)N(CCCl)N=O [Compound 38] ?
Resp: 45.7

Req: If you can, please state the reported Therapeutic ratio TR value of CCN(C(=O)N(CCCl)N=O)[C@H]1[C@@H](OCC(C)C)O[C@H](CO)[C@H](O)[C@@H]1O [Compound 121] .
Resp: 26.7

Req: Would you kindly share the measured Therapeutic ratio TR for CCCO[C@H]1O[C@H](CN(CC(C)C)C(=O)N(CCCl)N=O)[C@@H](O)[C@H](O)[C@H]1O [Compound 1] ?
Resp: 40.5

Req: Which Therapeutic ratio TR is reported for this molecule? COCCN(C(=O)N(CCCl)N=O)[C@H]1[C@H](OC2CCCCC2)OC[C@H](O)[C@@H]1O [Compound 155]
Resp: 60.6

Continuing:
Req: Param item = Cc1ccc(CN(C[C@H]2O[C@H](OC3CCCCC3)[C@H](O)[C@@H](O)[C@@H]2O)C(=O)N(CCCl)N=O)cc1 [Compound 47] ; retrieve measured Therapeutic ratio TR.
Resp: 34.2

Req: Returns the measured Therapeutic ratio TR for the input molecule. Input: CCCCO[C@H]1O[C@H](CO)[C@H](N(C(=O)N(CCCl)N=O)C(C)COC)[C@H](O)[C@H]1O (stereo partly shown) [Compound 132]
Resp: 41.5

Req: Quick check: Therapeutic ratio TR of COc1ccc(CN(C[C@H]2O[C@H](OC3CCCCC3)[C@H](O)[C@@H](O)[C@H]2O)C(=O)N(CCCl)N=O)cc1 [Compound 104] ?
Resp: 30.3

Req: // Therapeutic ratio TR lookup, key: COCCN(C(=O)N(CCCl)N=O)[C@@H]1[C@@H](OCCc2ccccc2)O[C@H](CO)[C@@H](O)[C@H]1O [Compound 142]
Resp: 38.5
